Target: T1, USP7 Ubl123 D764A (human, UniProt Q93009 535-889, D764A)
T1 construct: USP7, human, residues 535-889 with D764A; Synthesized (Genscript), in pET15b; also called Ubl123 mutant D764A; source: E. coli BL21(DE3)mgk, purified (nickel-NTA, SEC)
T1 sequence (Q93009 535-889 D764A): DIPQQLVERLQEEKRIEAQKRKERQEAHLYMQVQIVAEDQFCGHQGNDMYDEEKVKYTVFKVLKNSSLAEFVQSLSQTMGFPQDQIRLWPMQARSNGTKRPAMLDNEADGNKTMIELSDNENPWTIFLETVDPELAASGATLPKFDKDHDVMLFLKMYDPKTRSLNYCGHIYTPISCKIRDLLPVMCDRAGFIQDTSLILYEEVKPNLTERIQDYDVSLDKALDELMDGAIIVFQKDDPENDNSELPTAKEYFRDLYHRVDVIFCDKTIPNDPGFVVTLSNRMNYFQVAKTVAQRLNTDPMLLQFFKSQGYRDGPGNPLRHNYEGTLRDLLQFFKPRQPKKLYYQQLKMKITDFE
Assay: fluorescence polarisation; USP7 proteins titrated (0 to 200 μM) into 40 nM N-terminally FITC-labeled peptide; 0.01% Triton X-100, 150 mM NaCl, 20 mM Tris pH 7.5
Conditions: both partners purified
Primed or numbered codes have the meaning given here. No end group written: not given here. FITC′ = fluorescein isothiocyanate label
Assay Metric: Kd

Incoming: Bench note: what Kd did {FITC′}-GPRKCARKTRH [FITC-labeled ICP0 peptide] show?
Outgoing: > 100 µM
